src = ChEMBL document CHEMBL2069298

Recorded Ratio by entry
# Tested on: Mycolicibacterium smegmatis MC2 155
# assay_notes: Inhibition of Multidrug resistance efflux pump in Mycobacterium smegmatis str. MC2 155 ATCC 700084 assessed as increase in normalized ethidium bromide fluorescence efflux at 0.5 MIC level by fluorimetric assay (reference value: 0.581 +/- 0.051 ratio)
Hey, just send me the number, nothing else.

compound	endpoint_label	assay_result
CCCCc1ccc(CCc2ccc(O)c(OC)c2)o1	Ratio	0.778

input: Name the reported Ratio value associated with the compound CCCCCC(=O)CC(=O)CCc1ccc(O)c(OC)c1
output: 0.789

input: Name the reported Ratio value associated with the compound CCCCC[C@H](O)CC(=O)CCc1ccc(OC)c(OC)c1
output: 0.746

input: Name the reported Ratio value associated with the compound CCCCCCCC(O)CCc1ccc(O)c(OC)c1 (racemic)
output: 0.792

input: Name the reported Ratio value associated with the compound CCCCCCC[C@H](O)CC(=O)CCc1ccc(O)c(OC)c1
output: 0.795

input: Name the reported Ratio value associated with the compound CCCCCCCC(=O)CCc1ccc(O)c(OC)c1
output: 0.793

----------
# Tested on: Mycolicibacterium smegmatis MC2 155
# assay_notes: Inhibition of Multidrug resistance efflux pump in Mycobacterium smegmatis str. MC2 155 ATCC 700084 assessed as increase in relative ethidium bromide fluorescence accumulation at 0.5 MIC level by fluorimetric assay (reference value: 6057.1 +/- 508.6 RFU)
endpoint_label: RFU
Hey, just send me the number, nothing else.

compound	tested_system	RFU
CCCCCC(=O)CC(=O)CCc1ccc(O)c(OC)c1	Mycolicibacterium smegmatis MC2 155	17800
CCCCC[C@H](O)CC(=O)CCc1ccc(OC)c(OC)c1	Mycolicibacterium smegmatis MC2 155	11800

input: Form: Entry = CCCCCCCC(O)CCc1ccc(O)c(OC)c1 (racemic) | System = Mycolicibacterium smegmatis MC2 155 | RFU = ____
output: 24700

input: Form: Entry = CCCCCCCC(=O)CCc1ccc(O)c(OC)c1 | System = Mycolicibacterium smegmatis MC2 155 | RFU = ____
output: 24600

input: Form: Entry = CCCCc1ccc(CCc2ccc(O)c(OC)c2)o1 | System = Mycolicibacterium smegmatis MC2 155 | RFU = ____
output: 17200

input: Form: Entry = CCCCCCC[C@H](O)CC(=O)CCc1ccc(O)c(OC)c1 | System = Mycolicibacterium smegmatis MC2 155 | RFU = ____
output: 21900

----------
# Tested on: Mycolicibacterium smegmatis MC2 155
# assay_notes: Inhibition of Multidrug resistance efflux pump in Mycobacterium smegmatis str. MC2 155 ATCC 700084 assessed as reduction in ethambutol bromide MIC presence of test compound at 64 mg/L
endpoint_label: fold change (FC)
Hey, just send me the number, nothing else.

Guide cases for fold change (FC), answers given:
mol	assay_result
CCCCC[C@H](O)CC(=O)CCc1ccc(OC)c(OC)c1	1
CCCCCC(=O)CC(=O)CCc1ccc(O)c(OC)c1	1
CCCCC[C@H](O)CC(=O)CCc1ccc(O)c(OC)c1	1
CCCCC[C@H](O)C[C@H](O)CCc1ccc(O)c(OC)c1	1

Now look at this entry.
input: Name the reported fold change (FC) value associated with the molecule CCCCC[C@H](O)C[C@@H](O)CCc1ccc(O)c(OC)c1
output: 1

----------
# System: Mycolicibacterium smegmatis MC2 155
# assay_notes: Inhibition of Multidrug resistance efflux pump in Mycobacterium smegmatis str. MC2 155 ATCC 700084 assessed as fractional inhibitory concentration index in presence of ethidium bromide
Recorded fractional inhibitory concentration index (FICI) by entry
Hey, just send me the number, nothing else.

Guide cases for fractional inhibitory concentration index (FICI), answers given:
molecule	tested_system	assay_result
CCCCCCCC(=O)CCc1ccc(O)c(OC)c1	Mycolicibacterium smegmatis MC2 155	0.25
CCCCCCCC(O)CCc1ccc(O)c(OC)c1 (racemic)	Mycolicibacterium smegmatis MC2 155	0.38
CCCCCCC[C@H](O)CC(=O)CCc1ccc(O)c(OC)c1	Mycolicibacterium smegmatis MC2 155	0.19
CCCCC[C@H](O)CC(=O)CCc1ccc(O)c(OC)c1	Mycolicibacterium smegmatis MC2 155	1
CCCCc1ccc(CCc2ccc(O)c(OC)c2)o1	Mycolicibacterium smegmatis MC2 155	0.19

input: Name the reported fractional inhibitory concentration index (FICI) value associated with the molecule CCCCC[C@H](O)C[C@H](O)CCc1ccc(O)c(OC)c1
output: 1

input: Name the reported fractional inhibitory concentration index (FICI) value associated with the molecule CCCCC[C@H](O)C[C@@H](O)CCc1ccc(O)c(OC)c1
output: 1

input: Name the reported fractional inhibitory concentration index (FICI) value associated with the molecule CCCCC[C@H](O)CC(=O)CCc1ccc(OC)c(OC)c1
output: 0.63

input: Name the reported fractional inhibitory concentration index (FICI) value associated with the molecule CCCCCC(=O)CC(=O)CCc1ccc(O)c(OC)c1
output: 0.25
